- procedure.details: Microsomal stability in human liver microsomes
- condition.label: human liver microsomes; predicted intrinsic clearance
attribute.measured: Microsomal Stability Clint (µL/min/mg)

- C[C@]1(c2ccc(Cl)cc2Cl)OC[C@@H](COc2ccc(N3CCN(C(=O)CCc4cccc(O)c4)CC3)cc2)O1: 218
- C[C@]1(c2ccc(Cl)cc2Cl)OC[C@@H](COc2ccc(N3CCNCC3)cc2)O1: 13.7
- C[C@]1(c2ccc(Cl)cc2Cl)OC[C@@H](COc2ccc(N3CCN(C(=O)Cc4cccc(O)c4)CC3)cc2)O1: 33.9
- C[C@]1(c2ccc(Cl)cc2Cl)OC[C@@H](COc2ccc(N3CCN(C(=O)c4cccc(O)c4)CC3)cc2)O1: 43

###

- Tested on: Gli1 mRNA in the Hh-dependent mouse embryonic fibroblast C3H10T1/2 cell line
- procedure.details: Gli1 mRNA down-regulation in C3H10T1/2 cells (qPCR)
- Type: cell-based
- condition.label: Mus musculus, C3H 10T1/2; Gli1 expression up-regulated by oxysterols (OHCs); Mean ± SEM; read-out: C3H10T1/2, IC50, OHCs
// values below are reported IC50
attribute.measured: IC50

* C[C@]1(c2ccc(Cl)cc2Cl)OC[C@@H](COc2ccc(N3CCN(C(=O)CCc4cccc(O)c4)CC3)cc2)O1 | 650 nM
* C[C@]1(c2ccc(Cl)cc2Cl)OC[C@@H](COc2ccc(N3CCNCC3)cc2)O1 | 2700 nM
* CS(=O)(=O)c1ccc(C(=O)Nc2ccc(Cl)c(-c3ccccn3)c2)c(Cl)c1 [Vismodegib, reference compound] | 10 nM

###

- procedure.details: Microsomal stability in human liver microsomes
- condition.label: human, human liver microsomes
attribute.measured: microsomal CLint (µL/min/mg)

• C[C@]1(c2ccc(Cl)cc2Cl)OCC(COc2ccc(N3CCN(C(=O)CCc4ccc(O)c(O)c4)CC3)cc2)O1 (some centres unmarked) = 105
• C[C@]1(c2ccc(Cl)cc2Cl)OCC(COc2ccc(N3CCN(CCCc4cccc(O)c4)CC3)cc2)O1 (some centres unmarked) = 50

###

// values below are reported GI50
- Test system: HC-04 cells
- procedure.details: in vitro
- Type: cell-based, human
- condition.label: human
- Procedure: The activity for both metabolites prompted a study of their PK profile (Table 3). […] In addition, significant improvements in solubility at pH 7.4 and pH 4.0 compared to ITZ were found for analogue 21. Finally, the general toxicity of compounds 11 and 21 were evaluated by exploring their anti-proliferative activity in HC-04 cells, a human hepatocyte-derived cell line that abundantly expresses drug metabolizing enzymes (Table 5). […]
attribute.measured: GI50 (µM)

- C[C@]1(c2ccc(Cl)cc2Cl)OC[C@@H](COc2ccc(N3CCN(C(=O)CCc4cccc(O)c4)CC3)cc2)O1 [Compound 11]: 13.2
- C[C@]1(c2ccc(Cl)cc2Cl)OC[C@@H](COc2ccc(N3CCNCC3)cc2)O1 [Compound 21]: 27.3

###

- procedure.details: PBS solubility
- condition.label: pH 7.4, aqueous buffer
// values below are reported solubility
attribute.measured: solubility

- C[C@]1(c2ccc(Cl)cc2Cl)OCC(COc2ccc(N3CCN(CCCc4cccc(O)c4)CC3)cc2)O1 (some centres unmarked): 0.02 µM
- C[C@]1(c2ccc(Cl)cc2Cl)OCC(COc2ccc(N3CCN(C(=O)CCc4ccc(O)c(O)c4)CC3)cc2)O1 (some centres unmarked): 0.84 µM
